# measurement target: human serum albumin (HSA) (Homo sapiens, UniProt P02768)
# Construct: purchased Sigma-Aldrich
# Sequence (P02768 25-609): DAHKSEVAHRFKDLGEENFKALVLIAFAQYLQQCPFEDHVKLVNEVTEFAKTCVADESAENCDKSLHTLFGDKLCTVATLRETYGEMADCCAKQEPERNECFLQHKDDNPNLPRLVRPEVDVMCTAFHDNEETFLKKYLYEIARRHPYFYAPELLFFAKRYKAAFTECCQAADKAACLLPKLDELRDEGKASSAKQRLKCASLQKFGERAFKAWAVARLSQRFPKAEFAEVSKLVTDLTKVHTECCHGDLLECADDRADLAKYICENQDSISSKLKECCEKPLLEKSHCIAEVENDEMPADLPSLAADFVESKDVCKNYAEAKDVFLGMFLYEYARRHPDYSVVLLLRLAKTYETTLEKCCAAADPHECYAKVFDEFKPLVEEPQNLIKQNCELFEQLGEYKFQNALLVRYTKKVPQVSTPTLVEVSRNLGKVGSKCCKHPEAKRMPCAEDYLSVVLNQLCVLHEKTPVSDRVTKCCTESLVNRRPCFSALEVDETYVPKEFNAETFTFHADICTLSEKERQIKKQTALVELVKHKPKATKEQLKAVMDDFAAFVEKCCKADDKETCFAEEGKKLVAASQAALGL
# assay protocol: Fluorescence quenching titration of human serum albumin
# Format: binding
# settings: T 308 K
measured attribute: n (binding stoichiometry)

> print(dat)
                         structure.notation         measured.attribute  reported.value
1   Cc1cc(C)c(C(=O)NCC(=O)NCc2ccccc2)c(S)n1  n (binding stoichiometry)            0.42
2  Cc1cc(C)c(C(=O)NCC(=O)NCc2ccccc2Cl)c(S)n1  n (binding stoichiometry)            0.63
3  Cc1cc(C)c(C(=O)NCC(=O)NCc2ccc(Cl)cc2)c(S)n1  n (binding stoichiometry)            0.65
4  Cc1cc(C)c(C(=O)NCC(=O)NCc2ccc(Oc3ccccc3)cc2)c(S)n1  n (binding stoichiometry)            0.44

---

Documented ΔH^0 across a set of compounds
# measurement target: human serum albumin (HSA) (Homo sapiens, UniProt P02768)
# Construct: purchased Sigma-Aldrich
# assay protocol: Fluorescence quenching titration of human serum albumin
# Type: binding
# settings: HSA complex formation; van't Hoff
measured attribute: ΔH^0 (kcal/mol)

> print(dat)
                                   compound  unit.info  reported.value
1  Cc1cc(C)c(C(=O)NCC(=O)NCc2ccccc2Cl)c(S)n1 [Compound 3d]   kcal/mol         -45.471
2  Cc1cc(C)c(C(=O)NCC(=O)NCc2ccc(Cl)cc2)c(S)n1 [Compound 3c]   kcal/mol         -45.696
3  Cc1cc(C)c(C(=O)NCC(=O)NCc2ccccc2)c(S)n1 [Compound 3g]   kcal/mol         -44.077
4  Cc1cc(C)c(C(=O)NCC(=O)NCc2ccc(Oc3ccccc3)cc2)c(S)n1 [Compound 3b]   kcal/mol         -96.119

---

# measurement target: human serum albumin (HSA) (Homo sapiens)
# Construct: purchased Sigma-Aldrich
# assay protocol: Fluorescence quenching titration of human serum albumin
# Type: binding
# settings: T 297 K; PBS pH 7.4
Here, each record is paired with measured KSV·10^4 data.
measured attribute: KSV·10^4

> print(dat)
                         structure.notation         reported.value
1  Cc1cc(C)c(C(=O)NCC(=O)NCc2ccccc2Cl)c(S)n1  2.51 10^4 dm^3·mol^−1
2  Cc1cc(C)c(C(=O)NCC(=O)NCc2ccc(Cl)cc2)c(S)n1  2.69 10^4 dm^3·mol^−1
3  Cc1cc(C)c(C(=O)NCC(=O)NCc2ccc(Oc3ccccc3)cc2)c(S)n1  1.21 10^4 dm^3·mol^−1
4   Cc1cc(C)c(C(=O)NCC(=O)NCc2ccccc2)c(S)n1  0.87 10^4 dm^3·mol^−1

---

# measurement target: human serum albumin (HSA) (Homo sapiens)
# Construct: purchased Sigma-Aldrich
# assay protocol: Fluorescence quenching titration of human serum albumin
# Format: binding
# settings: T 297 K
measured attribute: kq·10^12

> print(dat)
                         structure.notation               reported.value
1  Cc1cc(C)c(C(=O)NCC(=O)NCc2ccccc2Cl)c(S)n1  2.51 10^12 dm^3·mol^−1·s^−1
2  Cc1cc(C)c(C(=O)NCC(=O)NCc2ccc(Oc3ccccc3)cc2)c(S)n1  1.21 10^12 dm^3·mol^−1·s^−1
3  Cc1cc(C)c(C(=O)NCC(=O)NCc2ccc(Cl)cc2)c(S)n1  2.69 10^12 dm^3·mol^−1·s^−1
4   Cc1cc(C)c(C(=O)NCC(=O)NCc2ccccc2)c(S)n1  0.87 10^12 dm^3·mol^−1·s^−1

---

# measurement target: human serum albumin (HSA) (Homo sapiens)
# Construct: purchased Sigma-Aldrich
# assay protocol: Fluorescence quenching titration of human serum albumin
# Assay type: binding
# settings: T 297 K
Recorded n (binding stoichiometry) by entry
measured attribute: n (binding stoichiometry)

> print(dat)
                         structure.notation  reported.value
1  Cc1cc(C)c(C(=O)NCC(=O)NCc2ccc(Oc3ccccc3)cc2)c(S)n1            0.89
2  Cc1cc(C)c(C(=O)NCC(=O)NCc2ccccc2Cl)c(S)n1            0.82
3  Cc1cc(C)c(C(=O)NCC(=O)NCc2ccc(Cl)cc2)c(S)n1            0.84
4   Cc1cc(C)c(C(=O)NCC(=O)NCc2ccccc2)c(S)n1            0.60

---

Property: Marker Displacement Percentage HSA/Dansyl-L-Gly; scope: individual compounds
# measurement target: HSA/Dansyl-L-Phe (Homo sapiens)
# Construct: purchased Sigma-Aldrich
# assay protocol: Marker displacement from HSA/Dansyl-L-Phe complex (Sudlow site II)
# Assay type: binding
# settings: room temperature
measured attribute: Marker Displacement Percentage HSA/Dansyl-L-Gly

> print(dat)
                         structure.notation  reported.value
1  Cc1cc(C)c(C(=O)NCC(=O)NCc2ccc(Cl)cc2)c(S)n1           18.5%
2   Cc1cc(C)c(C(=O)NCC(=O)NCc2ccccc2)c(S)n1           11.1%
3  Cc1cc(C)c(C(=O)NCC(=O)NCc2ccccc2Cl)c(S)n1           10.6%
4  Cc1cc(C)c(C(=O)NCC(=O)NCc2ccc(Oc3ccccc3)cc2)c(S)n1           35.2%

---

# measurement target: human serum albumin (HSA) (Homo sapiens)
# Construct: purchased Sigma-Aldrich
# assay protocol: Fluorescence quenching titration of human serum albumin
# Format: binding
# settings: T 308 K
measured attribute: kq·10^12

> print(dat)
                                   compound                        measurement.target               reported.value
1  Cc1cc(C)c(C(=O)NCC(=O)NCc2ccccc2Cl)c(S)n1 [Compound 3d]  human serum albumin (HSA) (Homo sapiens)  1.88 10^12 dm^3·mol^−1·s^−1
2  Cc1cc(C)c(C(=O)NCC(=O)NCc2ccc(Cl)cc2)c(S)n1 [Compound 3c]  human serum albumin (HSA) (Homo sapiens)  2.07 10^12 dm^3·mol^−1·s^−1
3  Cc1cc(C)c(C(=O)NCC(=O)NCc2ccc(Oc3ccccc3)cc2)c(S)n1 [Compound 3b]  human serum albumin (HSA) (Homo sapiens)  0.86 10^12 dm^3·mol^−1·s^−1
4  Cc1cc(C)c(C(=O)NCC(=O)NCc2ccccc2)c(S)n1 [Compound 3g]  human serum albumin (HSA) (Homo sapiens)  0.63 10^12 dm^3·mol^−1·s^−1

---

# measurement target: human serum albumin (HSA) (Homo sapiens, UniProt P02768)
# Construct: purchased Sigma-Aldrich
# assay protocol: Fluorescence quenching titration of human serum albumin
# Type: binding
# settings: T 303 K; PBS pH 7.4
measured attribute: KSV·10^4

> print(dat)
                                   compound                        measurement.target  measured.attribute         reported.value
1  Cc1cc(C)c(C(=O)NCC(=O)NCc2ccc(Cl)cc2)c(S)n1 [Compound 3c]  human serum albumin (HSA) (Homo sapiens, UniProt P02768)            KSV·10^4  2.34 10^4 dm^3·mol^−1
2  Cc1cc(C)c(C(=O)NCC(=O)NCc2ccccc2)c(S)n1 [Compound 3g]  human serum albumin (HSA) (Homo sapiens, UniProt P02768)            KSV·10^4  0.72 10^4 dm^3·mol^−1
3  Cc1cc(C)c(C(=O)NCC(=O)NCc2ccc(Oc3ccccc3)cc2)c(S)n1 [Compound 3b]  human serum albumin (HSA) (Homo sapiens, UniProt P02768)            KSV·10^4  1.06 10^4 dm^3·mol^−1
4  Cc1cc(C)c(C(=O)NCC(=O)NCc2ccccc2Cl)c(S)n1 [Compound 3d]  human serum albumin (HSA) (Homo sapiens, UniProt P02768)            KSV·10^4  2.13 10^4 dm^3·mol^−1

---

Each entry below lists one item and its recorded kq·10^12 value.
# measurement target: human serum albumin (HSA) (Homo sapiens, UniProt P02768)
# Construct: purchased Sigma-Aldrich
# assay protocol: Fluorescence quenching titration of human serum albumin
# Assay type: binding
# settings: T 303 K
measured attribute: kq·10^12

> print(dat)
                         structure.notation               reported.value
1   Cc1cc(C)c(C(=O)NCC(=O)NCc2ccccc2)c(S)n1  0.72 10^12 dm^3·mol^−1·s^−1
2  Cc1cc(C)c(C(=O)NCC(=O)NCc2ccc(Oc3ccccc3)cc2)c(S)n1  1.06 10^12 dm^3·mol^−1·s^−1
3  Cc1cc(C)c(C(=O)NCC(=O)NCc2ccc(Cl)cc2)c(S)n1  2.34 10^12 dm^3·mol^−1·s^−1
4  Cc1cc(C)c(C(=O)NCC(=O)NCc2ccccc2Cl)c(S)n1  2.13 10^12 dm^3·mol^−1·s^−1
